Exercise: state measured Ki for each of the compounds provided.
# MEASURED_ON: Histamine H4 receptor (Homo sapiens)
# Sequence (Q9H3N8 whole entry): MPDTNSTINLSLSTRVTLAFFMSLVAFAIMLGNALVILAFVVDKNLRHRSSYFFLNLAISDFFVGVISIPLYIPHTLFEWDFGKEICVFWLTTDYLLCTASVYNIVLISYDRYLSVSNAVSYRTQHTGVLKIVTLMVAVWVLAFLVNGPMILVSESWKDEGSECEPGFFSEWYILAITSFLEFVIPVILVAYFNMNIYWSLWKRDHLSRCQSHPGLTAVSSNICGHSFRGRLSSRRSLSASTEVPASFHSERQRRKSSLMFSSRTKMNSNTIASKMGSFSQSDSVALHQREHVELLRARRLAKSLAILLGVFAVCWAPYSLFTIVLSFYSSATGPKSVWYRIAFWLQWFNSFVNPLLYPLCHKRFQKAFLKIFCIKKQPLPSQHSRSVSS
# TEST_NAME: Displacement of [3H]-histamine from human histamine H4 receptor expressed in HEK293T cells after 1 to 1.5 hrs by liquid scintillation counting analysis
# Assay type: cell-based, HEK-293T

If you can, please state the reported Ki value of CN(C)CCNc1ncnc2c1[nH]c1ccc(Cl)cc12 .
5.89 µM

If you can, please state the reported Ki value of Cc1cc(N2CCN(C)CC2)nc(N2CCOCC2)n1 .
6.92 µM

If you can, please state the reported Ki value of Cc1nc(N2CCN(C)CC2)c2oc3ccccc3c2n1 .
0.148 µM

If you can, please state the reported Ki value of CCc1nc(N2CCN(C)CC2)c2oc3ccccc3c2n1 .
0.269 µM
